Ref: patent US20160368919A1

Molecular target: BRD4 BD1 (Homo sapiens, UniProt O60885)
Construct: His-tagged BRD4 BD1 (44-160)
Assay: BRD4 BD1 Fluorescence Polarization (FP) competition binding assay
Conditions: BRD4 BD1 40 nM, probe PFI-411FP 2 nM
pIC50 overview
pIC50 is a log-scale quantity: -log10 of the concentration expressed in molar.

Prompt: Entry Cc1noc(C)c1-c1ccc2nc(NCCN3CCOCC3)c(=O)n(Cc3ccccc3)c2n1 [Example 37] has what pIC50?
Response: 6.32

Prompt: What do you have for CC[C@H](COC)n1c(=O)c(NCCC(=O)O)nc2ccc(-c3c(C)noc3C)nc21 [Example 47] ?
Response: 6.71

Prompt: Cc1noc(C)c1-c1ccc2nc(NCC(=O)O)c(=O)n([C@@H](C)c3ccccc3)c2n1 [Example 41] ?
Response: 6.23

====

Target: BRD4 BD1 (Homo sapiens, UniProt O60885)
Construct: His-tagged BRD4 BD1 (44-160); made in house
Assay: BRD4 BD1 Fluorescence Polarization (FP) competition binding assay
Conditions: BRD4 BD1 40 nM, probe PFI-411FP 2 nM
readout_type: log10 IC50 (log10 of the value in nM)
Note: values are log10 of IC50 expressed in nM.

1) CCC[C@@H](c1ccccc1)n1c(=O)c(NCCC(=O)O)nc2ccc(-c3c(C)noc3C)nc21: 1.80

Prompt: Reported log10 IC50, compound "CC[C@@H](c1ccccc1)n1c(=O)c(NCCC(=O)O)nc2ccc(N(C)C(=O)C3CC(F)(F)C3)nc21" : ____
Response: 3.88

Prompt: And "CCC(=O)N(C)c1ccc2nc(NCC(=O)NC)c(=O)n(C(COC)COC)c2n1" ?
Response: 3.61

====

Molecular target: BRD4 BD1 (Homo sapiens, UniProt O60885)
Construct: His-tagged BRD4 BD1 (44-160)
Test: BRD4 BD1 Fluorescence Polarization (FP) competition binding assay
Conditions: BRD4 BD1 40 nM, probe PFI-411FP 2 nM
readout_type: IC50
Answer format: value, then unit.

Guide cases for IC50, answers given:
1) CCC(=O)N(C)c1ccc2nc(NCC(=O)NC)c(=O)n([C@H](CC)COC)c2n1 [Example 18]: 4190 nM
2) CCC(=O)N(C)c1ccc2nc(NCCC(=O)O)c(=O)n(C3C(CC)CCC3CC)c2n1 (stereo not drawn) [Example 13]: 111 nM
3) CCC[C@H](COC)n1c(=O)c(NCCC(=O)O)nc2ccc(N(C)C(=O)CC)nc21 [Example 17]: 268 nM
4) Cc1noc(C)c1-c1ccc2nc(NCCC(=O)O)c(=O)n([C@H](c3ccccc3)C(C)C)c2n1 [Example 53]: 125 nM
5) Cc1noc(C)c1-c1ccc2nc(NCCC(=O)O)c(=O)n(C3CCOCC3)c2n1 [Example 49]: 4870 nM

Prompt: Please report the recorded IC50 for CCC(=O)N(C)c1ccc2nc(NCCC(=O)O)c(=O)n(C3(C4CCCC4)CC3)c2n1 [Example 24] .
Response: 1580 nM

====

Biological target: BRD4 BD1 (Homo sapiens)
Construct: His-tagged BRD4 BD1 (44-160)
Assay: BRD4 BD1 Fluorescence Polarization (FP) competition binding assay
Settings: BRD4 BD1 40 nM, probe PFI-411FP 2 nM
readout_type: pIC50
Note on units: pIC50 is unitless, being -log10 of a concentration expressed in mol/L.

The following molecules have reported results that may help.
1) CCOc1ccccc1Cn1c(=O)c(NCCN2CCOCC2)nc2ccc(-c3c(C)noc3C)nc21: 5.60
2) CNC(=O)CNc1nc2ccc(-c3c(C)noc3C)nc2n([C@@H](C)c2ccccc2OC)c1=O: 6.80
3) CC[C@@H](c1ncccn1)n1c(=O)c(NCCC(=O)O)nc2ccc(-c3c(C)noc3C)nc21: 6.49
4) CCC(=O)N(C)c1ccc2nc(NCCC(=O)NC)c(=O)n([C@@H](COC)c3ccccc3)c2n1: 6.96
5) CCC(=O)N(C)c1ccc2nc(NCCC(=O)O)c(=O)n([C@@H](CC)c3ccccn3)c2n1: 6.60
6) CC[C@@H](c1ccccc1)n1c(=O)c(NC(C)=O)nc2ccc(N(C)C(C)=O)nc21: 6.68

Prompt: Give BRD4 BD1 (Homo sapiens) pIC50 for "CCCC(=O)N(C)c1ccc2nc(NCCC(=O)O)c(=O)n([C@@H](CC)c3ccccc3)c2n1"
Response: 6.89

Prompt: Could you do the same for "Cc1noc(C)c1-c1ccc2nc(NCCC(=O)O)c(=O)n([C@@H](C)c3ccccc3)c2n1" , please?
Response: 6.84

Prompt: Same lookup for "COc1ccccc1[C@H](C)n1c(=O)c(NCCN2CCOCC2)nc2ccc(-c3c(C)noc3C)nc21" , please.
Response: 6.71

Prompt: Can you check "COc1ccccc1[C@H](C)n1c(=O)c(NCCC(=O)O)nc2ccc(-c3c(C)noc3C)nc21" next?
Response: 6.24

====

Target: BRD4 BD1 (Homo sapiens, UniProt O60885)
Construct: His-tagged BRD4 BD1 (44-160)
Test: BRD4 BD1 Fluorescence Polarization (FP) competition binding assay
Conditions: BRD4 BD1 40 nM, probe PFI-411FP 2 nM
readout_type: pIC50
Note on pIC50: it is the negative log10 of concentration, concentration in mol/L.

1) CC[C@@H](c1ccccc1)n1c(=O)c(NCCC(=O)O)nc2ccc(-c3c(C)noc3C)nc21: 7.05
2) CCC(=O)N(C)c1ccc2nc(NCCC(=O)NC)c(=O)n([C@H](c3ccccn3)C(C)C)c2n1: 6.78
3) Cc1noc(C)c1-c1ccc2nc(NCCC(=O)NS(C)(=O)=O)c(=O)n([C@@H](C)c3ccccc3)c2n1: 6.63

Consider now this further compound.
Prompt: Under BRD4 BD1 (Homo sapiens, UniProt O60885): pIC50 value of "CC[C@@H](c1ccccc1)n1c(=O)c(NCCC(=O)O)nc2ccc(N(C)C(=O)NC)nc21" ?
Response: 6.82

====

Target: BRD4 BD1 (Homo sapiens, UniProt O60885)
Construct: His-tagged BRD4 BD1 (44-160)
Test: BRD4 BD1 Fluorescence Polarization (FP) competition binding assay
Details: BRD4 BD1 40 nM, probe PFI-411FP 2 nM
Reported pIC50 values follow for various compounds
Reminder that pIC50 is minus the log10 of a molar concentration.

Recorded results for 2 compounds are shown here.
1. COCC(COC)n1c(=O)c(NCCC(=O)O)nc2ccc(-c3c(C)noc3C)nc21: 6.33
2. Cc1noc(C)c1-c1ccc2nc(NCCC(=O)O)c(=O)n([C@@H](C)C3CCCCC3)c2n1: 6.88

# next compound below
Prompt: Reported pIC50 for "CCC(=O)N(C)c1ccc2nc(NCCC(=O)O)c(=O)n(C3(c4ccccc4)CCC3)c2n1" : what is it?
Response: 6.09
